Target: COVID-19 S1 Spike Protein Mutant A475V (SARS-CoV-2), P0DTC2
Assay: FP direct binding
Non-standard residues stand in square brackets, D forms with d. No end group written: not given here. Sar = CNCC(=O)O
QUANTITY NAME: pKd
Remember the convention: pKd equals -log10 of concentration in molar.

Some binders with recorded pKd:
The measured pKd associated with ACDVCGLNAFNRCA[Sar][Sar][Sar][Sar][Sar][Sar][KFl] (cysteine pairing not given here) [BCY16287] reads 7.27

The binder listed as ACRQSQCDWWAIRSFCA[Sar][Sar][Sar][Sar][Sar][Sar][KFl] (cysteine pairing not given here) [BCY15324] shows pKd equal to 6.20

Then this binder:
binder ACEDHDWVYCSTCA[Sar][Sar][Sar][Sar][Sar][Sar][KFl] (cysteine pairing not given here) [BCY15299] , pKd observed: 6.15
